# Target under test: human β3 adrenergic receptor (Homo sapiens, UniProt P13945)
# Construct: Full length β3 AR clones (402 amino acids) containing the last 6 amino acids of hβ3_AR are prepared
# Sequence (P13945 whole entry): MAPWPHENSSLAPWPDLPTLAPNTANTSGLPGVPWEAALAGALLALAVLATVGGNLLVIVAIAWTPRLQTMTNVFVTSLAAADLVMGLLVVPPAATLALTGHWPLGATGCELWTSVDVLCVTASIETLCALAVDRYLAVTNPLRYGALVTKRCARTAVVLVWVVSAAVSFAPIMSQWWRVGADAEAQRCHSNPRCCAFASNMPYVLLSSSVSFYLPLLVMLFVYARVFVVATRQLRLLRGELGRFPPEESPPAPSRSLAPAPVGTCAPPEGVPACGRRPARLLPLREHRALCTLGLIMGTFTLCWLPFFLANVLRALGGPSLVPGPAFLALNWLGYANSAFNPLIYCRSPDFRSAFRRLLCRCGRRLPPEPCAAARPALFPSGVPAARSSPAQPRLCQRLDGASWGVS
# Procedure summary: cAMP accumulation (SPA) in CHO cells transfected with human β3 adrenergic receptor
# Reported conditions: CHO cells, cAMP, 30 min incubation; read-out: beta-3 EC50
pEC50: −log10 of the molar value.
Assign class by pEC50: not lower than 7 means y; lower than 7 means n.

• CCCCOc1ccc(S(=O)(=O)N2CCC(NC[C@H](O)COc3cccc4[nH]c5ccccc5c34)CC2)cc1 [Example 14] = n
• COc1ccc(S(=O)(=O)N2CCC(NC[C@H](O)COc3cccc4[nH]c5ccccc5c34)CC2)cc1OC [Example 21] = y
• COc1ccc(S(=O)(=O)N2CCC(NC[C@H](O)COc3cccc4[nH]c5ccccc5c34)CC2)cc1 [Example 15] = y
• O=c1[nH]c2cccc(OC[C@@H](O)CNC3CCN(S(=O)(=O)c4cccc5nsnc45)CC3)c2[nH]1 [Example 8] = n
• CCCCOc1ccc(S(=O)(=O)N2CCC(NC[C@H](O)COc3cccc4[nH]c(=O)[nH]c34)CC2)cc1 [Example 9] = n

Would you kindly look at the next entry?
## Input Is pEC50 at least 7? Consider CCCCOc1ccc(S(=O)(=O)N2CC(NC[C@H](O)COc3ccc(O)cc3)C2)cc1 [Example 1]
## Output y

* * *

# Target under test: human β2-adrenergic receptor (Homo sapiens, UniProt P07550)
# Construct: expressed in transfected cells; host or cells: CHO cells
# Sequence (P07550 whole entry): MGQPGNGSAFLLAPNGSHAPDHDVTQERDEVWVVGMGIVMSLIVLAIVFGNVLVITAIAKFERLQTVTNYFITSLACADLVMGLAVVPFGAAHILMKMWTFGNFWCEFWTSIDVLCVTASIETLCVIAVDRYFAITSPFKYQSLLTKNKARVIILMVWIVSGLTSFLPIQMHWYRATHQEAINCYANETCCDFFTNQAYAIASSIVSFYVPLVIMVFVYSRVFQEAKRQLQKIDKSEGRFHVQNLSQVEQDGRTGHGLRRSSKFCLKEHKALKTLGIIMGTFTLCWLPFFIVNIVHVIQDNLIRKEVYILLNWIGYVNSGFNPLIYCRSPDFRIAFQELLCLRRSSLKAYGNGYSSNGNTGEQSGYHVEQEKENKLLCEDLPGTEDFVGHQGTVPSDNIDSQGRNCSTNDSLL
# Procedure summary: cAMP accumulation (SPA) in CHO cells transfected with human β2 adrenergic receptor
# Assay type: cell-based
# Reported conditions: fraction of maximal isoproterenol response
Metric name: beta-2 IA (maximal response relative to isoproterenol at 10^-5 M)

Result for CCCCOc1ccc(S(=O)(=O)N2CC(NC[C@H](O)COc3ccc(O)cc3)C2)cc1 [Example 1] , tested on human β2-adrenergic receptor (Homo sapiens, UniProt P07550), beta-2 IA (maximal response relative to isoproterenol at 10^-5 M): 0.39

* * *

# Target under test: human β1-adrenergic receptor (Homo sapiens)
# Construct: expressed in transfected cells; host or cells: CHO cells
# Sequence (P08588 whole entry): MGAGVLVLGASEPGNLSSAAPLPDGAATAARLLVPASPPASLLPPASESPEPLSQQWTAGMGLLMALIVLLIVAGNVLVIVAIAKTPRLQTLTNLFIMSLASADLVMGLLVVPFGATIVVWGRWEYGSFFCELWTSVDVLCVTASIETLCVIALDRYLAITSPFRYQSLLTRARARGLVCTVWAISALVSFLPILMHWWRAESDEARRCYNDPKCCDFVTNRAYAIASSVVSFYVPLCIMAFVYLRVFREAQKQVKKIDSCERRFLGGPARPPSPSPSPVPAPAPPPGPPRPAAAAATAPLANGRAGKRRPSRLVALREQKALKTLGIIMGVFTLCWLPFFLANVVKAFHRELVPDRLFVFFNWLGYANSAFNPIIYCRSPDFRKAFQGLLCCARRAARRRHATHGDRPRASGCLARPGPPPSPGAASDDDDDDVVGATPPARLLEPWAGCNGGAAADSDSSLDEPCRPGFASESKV
# Procedure summary: cAMP accumulation (SPA) in CHO cells transfected with human β1 adrenergic receptor
# Format: cell-based
# Reported conditions: fraction of maximal isoproterenol response
Metric name: beta-1 IA (maximal response relative to isoproterenol at 10^-5 M)

* COc1ccc(S(=O)(=O)N2CCC(NC[C@H](O)COc3cccc4[nH]c(=O)[nH]c34)CC2)cc1OC | (0.3)
* CCCCOc1ccc(S(=O)(=O)N2CC(NC[C@H](O)COc3ccc(O)cc3)C2)cc1 | 0.49
* COc1ccc(S(=O)(=O)N2CCC(NC[C@H](O)COc3cccc4[nH]c5ccccc5c34)CC2)cc1 | (0.1)
* COc1ccc(S(=O)(=O)N2CCC(NC[C@H](O)COc3cccc4[nH]c5ccccc5c34)CC2)cc1OC | (0.1)

* * *

Metric name: melting point

Examples with their reported melting point follow.
- CCCCOc1ccc(S(=O)(=O)N2CC(NCC(O)COc3cccc4[nH]c5ccccc5c34)C2)cc1 (centres unmarked) [Example 3]: 81 to 84 °C
- CCCCOc1ccc(S(=O)(=O)N2CCC(NC[C@H](O)COc3cccc4[nH]c5ccccc5c34)C2)cc1 (some centres unmarked) [Example 7]: 118 to 119 °C
- CCCCOc1ccc(S(=O)(=O)N2CC(NCC(O)c3ccc(O)c(NS(C)(=O)=O)c3)C2)cc1 (centres unmarked) [Example 5]: 67 to 70 °C

Would you mind listing melting point for each of the following molecules?
1. CCCCOc1ccc(S(=O)(=O)N2CC(NC[C@H](O)COc3ccc(O)cc3)C2)cc1 [Example 1]
2. CCCCOc1ccc(S(=O)(=O)N2CCC(NCC(O)c3ccc(O)c(NS(C)(=O)=O)c3)C2)cc1 (centres unmarked) [Example 6]

## Output
1: 55 to 58 °C; 2: 95 to 98 °C

* * *

# Target under test: human β2-adrenergic receptor (Homo sapiens, UniProt P07550)
# Procedure summary: cAMP accumulation (SPA) in CHO cells transfected with human β2 adrenergic receptor
# Reported conditions: read-out: beta-2 EC50
Metric name: EC50 (nM)
Numbers only, in nM.

So for `CCCCOc1ccc(S(=O)(=O)N2CC(NC[C@H](O)COc3ccc(O)cc3)C2)cc1` , the logged EC50 turned out to be 900

* * *

# Target under test: human β1-adrenergic receptor (Homo sapiens)
# Construct: expressed in transfected cells; host or cells: CHO cells
# Procedure summary: cAMP accumulation (SPA) in CHO cells transfected with human β1 adrenergic receptor
# Assay type: cell-based
# Reported conditions: read-out: beta-1 EC50
Metric name: pEC50
Give bare numbers, as −log10 of the molar value.

So for `CCCCOc1ccc(S(=O)(=O)N2CC(NC[C@H](O)COc3ccc(O)cc3)C2)cc1` , the logged pEC50 turned out to be 5.80

* * *

# Target under test: human β3 adrenergic receptor (Homo sapiens, UniProt P13945)
# Construct: Full length β3 AR clones (402 amino acids) containing the last 6 amino acids of hβ3_AR are prepared; expressed in transfected cells; host or cells: CHO cells
# Procedure summary: cAMP accumulation (SPA) in CHO cells transfected with human β3 adrenergic receptor
# Type: cell-based
# Reported conditions: CHO cells, cAMP; fraction of maximal isoproterenol response
Metric name: beta-3 IA (maximal response relative to isoproterenol at 10^-5 M)
Answers are plain numbers.

Examples with their reported beta-3 IA (maximal response relative to isoproterenol at 10^-5 M) follow.
• CCCCOc1ccc(S(=O)(=O)N2CCC(NC[C@H](O)COc3cccc4[nH]c5ccccc5c34)CC2)cc1 = 0.74
• CCCCOc1ccc(S(=O)(=O)N2CCC(NC[C@H](O)COc3cccc4[nH]c(=O)[nH]c34)CC2)cc1 = 0.8
• COc1ccc(S(=O)(=O)N2CCC(NC[C@H](O)COc3cccc4[nH]c(=O)[nH]c34)CC2)cc1OC = 0.87
• COc1ccc(S(=O)(=O)N2CCC(NC[C@H](O)COc3cccc4[nH]c5ccccc5c34)CC2)cc1 = 0.88
• CS(=O)(=O)Nc1cc(C(O)CNC2CCN(S(=O)(=O)c3ccc4oc5ccccc5c4c3)CC2)ccc1O (centres unmarked) = 0.88
• CCCCOc1ccc(S(=O)(=O)N2CC(NC[C@H](O)COc3ccc(O)cc3)C2)cc1 = 0.82

Would you mind listing beta-3 IA (maximal response relative to isoproterenol at 10^-5 M) for each of the following molecules?
1. COc1ccc(S(=O)(=O)N2CCC(NC[C@H](O)COc3cccc4[nH]c5ccccc5c34)CC2)cc1OC
2. O=c1[nH]c2cccc(OC[C@@H](O)CNC3CCN(S(=O)(=O)c4cccc5nsnc45)CC3)c2[nH]1

## Output
1. 1.2
2. 0.75
